# Test System: hα2A receptor (Homo sapiens)
# Construct: expressed in transfected cells; host or cells: CHO cells
# Sequence (P08913 whole entry): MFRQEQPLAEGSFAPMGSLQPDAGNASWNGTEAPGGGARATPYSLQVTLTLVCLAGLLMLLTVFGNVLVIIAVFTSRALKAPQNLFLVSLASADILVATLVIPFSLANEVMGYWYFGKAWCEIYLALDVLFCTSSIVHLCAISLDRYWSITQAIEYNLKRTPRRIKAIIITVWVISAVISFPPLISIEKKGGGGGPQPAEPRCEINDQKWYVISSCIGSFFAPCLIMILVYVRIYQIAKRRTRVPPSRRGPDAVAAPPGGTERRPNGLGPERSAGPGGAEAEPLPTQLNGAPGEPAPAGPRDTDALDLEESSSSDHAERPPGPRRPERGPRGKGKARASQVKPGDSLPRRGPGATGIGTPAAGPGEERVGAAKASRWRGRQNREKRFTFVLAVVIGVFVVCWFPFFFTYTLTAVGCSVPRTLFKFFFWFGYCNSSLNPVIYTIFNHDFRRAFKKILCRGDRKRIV
# Protocol Summary: Radioligand binding experiment for α2A-adrenergic receptor ([3H]-raulwolscine)
# Condition Set: CHO cell membranes with human α2A receptor, [3H]raulwolscine 1 nM; read-out: pIC50 α2A (converted)
Measured Attribute: log10 of IC50 (log10 of the value in nM)

> print(dat)
                                   compound  measured.attribute  value.measured
1  COc1cc2c(cc1NC(=O)C1CCC1)OCC1C2=NOC1CN1CCN(CC(C)=Cc2ccc(F)cc2)CC1 (stereo not shown)       log10 of IC50            1.60
2  CC(=Cc1ccccc1)CN1CCN(CC2ON=C3c4ccc(NC(=O)Nc5ccccc5)cc4OCC32)CC1 (stereo not shown)       log10 of IC50            1.40
3  CCCC(C)C(=O)Nc1cc2c(cc1OC)C1=NOC(CN3CCN(CC(C)=Cc4ccc(F)cc4)CC3)C1CO2 (stereo not shown)       log10 of IC50            1.90
4  CC(=Cc1ccc(F)cc1)CN1CCN(CC2ON=C3c4ccc(N5CCC5=O)cc4OCC32)CC1 (stereo not shown)       log10 of IC50            0.50
5  CCC(C)(C)NCCN(C)c1ccc2c(c1)OCC1C2=NOC1CN1CCN(CC(C)=Cc2ccc(F)cc2)CC1 (stereo not shown)       log10 of IC50            1.60
6  CCNC(=O)N1CCOc2cc3c(cc21)OCC1C3=NOC1CN1CCN(C/C(C)=C/c2ccccc2)CC1 (stereo not shown)       log10 of IC50            0.90
7  COc1cc2c(cc1NCCN(C)C)OCC1C2=NOC1CN1CCN(CC(C)=Cc2ccc(F)cc2)CC1 (stereo not shown)       log10 of IC50            1.40

----------
Structures can show the parent of a compound that is named as a salt.
Measured Attribute: melting point

> print(dat)
                                   compound     value.measured
1  CCOC(=O)C1CCN(c2ccc3c(c2)OCC2C3=NOC2CN2CCN(CC(C)=Cc3ccc(F)cc3)CC2)CC1 (stereo not shown)    156.4 to 161 °C
2  CC(=Cc1ccc(F)cc1)CN1CCN(CC2ON=C3c4ccc(N5CCN(Cc6ccccc6)CC5)cc4OCC32)CC1 (stereo not shown)  166.4 to 178.2 °C
3  CC(=Cc1ccc(F)cc1)CN1CCN(CC2ON=C3c4ccc(N(C)CCN)cc4OCC32)CC1 (stereo not shown) (as salt: HCl)      218 to 226 °C
4  CC(=Cc1ccccc1)CN1CCN(CC2ON=C3c4ccc(NC(=O)NC5CCCCC5)cc4OCC32)CC1 (stereo not shown)  121.1 to 136.5 °C
5  CC(=Cc1ccccc1)CN1CCN(CC2ON=C3c4ccc(N(S(C)(=O)=O)S(C)(=O)=O)cc4OCC32)CC1 (stereo not shown)  201.8 to 202.9 °C
6  CC(=Cc1ccccc1)CN1CCN(CC2ON=C3c4ccc(Nc5ccccc5)cc4OCC32)CC1 (stereo not shown)  127.1 to 131.4 °C
7  C/C(=C\c1ccc(F)cc1)CN1CCN(CC2ON=C3c4cc5c(cc4OCC32)NCCO5)CC1 (stereo not shown)  160.6 to 172.2 °C
